Tested on: SK-HEP1
testProtocol: Inhibitory concentration against human SK-Hep-1 cells (hepatoma cell line)
Type: functional, cell-based
measuredEndpoint: pIC50
Answers are plain numbers, as −log10 of the molar value.

Reference set, count: 4
Lookup: Given COCC(O)CN(C(=O)CNC(=O)c1cc2cc(Cl)ccc2[nH]1)C1CCCC1 (configuration not stated) , state its recorded pIC50.
Found: 6.06

Lookup: Given O=C(NCC(=O)N(CC(O)CO)C1CCCC1)c1cc2cc(Cl)ccc2[nH]1 (configuration not stated) , state its recorded pIC50.
Found: 5.89

Lookup: Given CC(O)CN(C(=O)CNC(=O)c1cc2cc(Cl)ccc2[nH]1)C1CCCC1 (configuration not stated) , state its recorded pIC50.
Found: 5.89

Lookup: Given O=C(NCC(=O)N(CCO)C1CCc2ccccc21)c1cc2cc(Cl)ccc2[nH]1 (configuration not stated) , state its recorded pIC50.
Found: 5.74

Continuing:
Lookup: Given `COCCN(C(=O)CNC(=O)c1cc2cc(Cl)ccc2[nH]1)C1CCCC1` , state its recorded pIC50.
Found: 5.82

Values were extracted from ChEMBL document CHEMBL1144257.
